target: human DGKα (Homo sapiens, UniProt P23743); construct: TVMV protease cleavage site (C); Hexa-His (C); made in house; host or cells: Sf9 insect cells (baculovirus, Bac-to-Bac); assay: DGKα LIPGLO assay (extruded liposome substrate), in vitro DGK inhibition; format: biochemical; conditions: liposome (LIPGLO) assay; read-out: DGKa LIPGLO IC50
Sequence (P23743 with tags, fused parts or gaps): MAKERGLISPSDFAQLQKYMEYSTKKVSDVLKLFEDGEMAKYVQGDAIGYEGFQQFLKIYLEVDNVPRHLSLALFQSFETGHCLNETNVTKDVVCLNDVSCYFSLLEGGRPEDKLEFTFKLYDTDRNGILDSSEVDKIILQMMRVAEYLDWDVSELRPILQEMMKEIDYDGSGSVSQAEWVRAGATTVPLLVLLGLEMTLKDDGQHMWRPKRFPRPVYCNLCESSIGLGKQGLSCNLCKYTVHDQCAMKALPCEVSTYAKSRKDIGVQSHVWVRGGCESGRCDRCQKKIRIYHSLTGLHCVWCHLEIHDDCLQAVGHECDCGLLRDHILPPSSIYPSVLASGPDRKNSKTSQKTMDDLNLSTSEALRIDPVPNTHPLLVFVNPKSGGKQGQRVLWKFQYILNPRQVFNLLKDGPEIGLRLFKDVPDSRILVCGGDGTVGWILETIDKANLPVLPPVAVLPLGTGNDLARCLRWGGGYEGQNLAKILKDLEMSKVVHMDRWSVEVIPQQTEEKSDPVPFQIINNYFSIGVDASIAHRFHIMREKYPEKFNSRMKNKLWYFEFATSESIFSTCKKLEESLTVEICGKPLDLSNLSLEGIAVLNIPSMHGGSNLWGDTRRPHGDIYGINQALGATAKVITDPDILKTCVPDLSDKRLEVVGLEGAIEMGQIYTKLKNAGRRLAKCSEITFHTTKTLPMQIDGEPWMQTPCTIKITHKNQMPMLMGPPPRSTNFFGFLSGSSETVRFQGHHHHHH
Measured quantity: IC50 (nM)

P = C[C@@H]1CN(c2cc(=O)n(C)c3ccc(C#N)nc23)[C@@H](C)CN1C(c1ccc(F)cc1)C1CCCCO1 (single isomer, unassigned) [Example 359]
Q = C[C@@H]1CN(c2cc(=O)n(C)c3ccc(C#N)nc23)[C@@H](C)CN1Cc1cccc(F)c1F
R = Cc1cc(C2CN(c3cc(=O)n(C)c4ccc(C#N)nc34)CC(C)N2C(c2ccc(F)cc2)c2ccc(F)cc2)ccn1 (centres unmarked)
S = [2H]C(CC)(c1ccc(F)cc1)N1C[C@H](C)N(c2cc(=O)n(C)c3ccc(C#N)nc23)C[C@H]1C (single isomer, unassigned) [Example 575]
Sort low-to-high on IC50, please. List labels; respect the requested ordering.
S, P, Q, R
(S: 180 nM, P: 280 nM, Q: 1900 nM, R: 81000 nM)

P = C[C@@H]1CN(c2cc(=O)n(C)c3ccc(C#N)nc23)[C@@H](C)CN1C(c1ccc(F)cc1)c1cnn2ccccc12 (single isomer, unassigned) [Example 698]
Q = CC[C@H]1CN(C(C)c2ccc(OC(F)(F)F)cc2)[C@H](CC)CN1c1cc(=O)n(C)c2ccc(C#N)nc12 (single isomer, unassigned) [Example 1054]
Record comparison, field IC50: mark the lower of P and Q . Answer with the label corresponding to your selection.
Q
(Q: 470 nM, P: 1700 nM)

A = Cn1c(=O)c(C#N)c(N2CCN(C(c3ccc(F)cc3)c3ccc(F)cc3)C(CO)C2)c2nc(Br)ccc21 (centres unmarked)
B = COC(=O)C1CN(c2cc(=O)n(C)c3ccc(C#N)nc23)CCN1C(c1ccc(F)cc1)c1ccc(F)cc1 (centres unmarked) [Example 27]
Record comparison, field IC50: mark the lower of A and B . Answer with the label corresponding to your selection.
A
(A: 2300 nM, B: 240000 nM)

====

molecular target: human DGKα (Homo sapiens); construct: TVMV protease cleavage site (C); Hexa-His (C); made in house; host or cells: Sf9 insect cells (baculovirus, Bac-to-Bac); test: DGKα LIPGLO assay (extruded liposome substrate), in vitro DGK inhibition; format: biochemical; settings: DGKα liposome (LIPGLO) assay; read-out: DGKa LIPGLO IC50
pIC50: −log10 of the molar value.
Measured quantity: pIC50

Sample answers from the record:
{"Molecule": "C[C@@H]1CN(c2c(C#N)c(=O)n(C)c3ccc(C#N)nc23)[C@@H](C)CN1C(c1ccc(F)cc1)c1ccc(F)cn1 (some centres unmarked) [Example 828]", "Assay target": "human DGKα (Homo sapiens)", "Measured quantity": "pIC50", "Number": 5.38}
{"Molecule": "C[C@@H]1CN(c2c(C#N)c(=O)n(C)c3ccc(C#N)nc23)[C@@H](C)CN1C(c1ccc(Cl)cc1)c1ccc(Cl)cc1 [Example 805]", "Assay target": "human DGKα (Homo sapiens)", "Measured quantity": "pIC50", "Number": 4.96}
{"Molecule": "C[C@@H]1CN(c2c(C#N)c(=O)n(C)c3ccc(C#N)nc23)CCN1C(c1ccc(F)cc1)c1ccc(C#N)cn1 (single isomer, unassigned) [Example 924]", "Assay target": "human DGKα (Homo sapiens)", "Measured quantity": "pIC50", "Number": 5.49}

P = C[C@@H]1CN(c2c(C#N)c(=O)n(C)c3ccc(C#N)nc23)CCN1Cc1cccc(OC(F)(F)F)c1 [Example 1008]
Q = Cc1cccc(C(c2ccc(F)cc2)N2CCN(c3c(C#N)c(=O)n(C)c4ccc(C#N)nc34)C[C@H]2C)n1 (single isomer, unassigned) [Example 906]
Parameter check: reported pIC50 is higher for which label, P or Q ? Answer with the label corresponding to your selection.
Q
(Q: 6.00, P: 5.77)
